Biological target: Sodium-dependent dopamine transporter (Rattus norvegicus)
Assay: Reuptake inhibition at the dopamine transporter labeled with radioligand [3H]dopamine on synaptosomes obtained from rat caudate.
Format: functional, subcellular, Brain
// boundary case: IC50 equal to 30 nM maps to False; strictly smaller maps to True

# example entries with known answers
- smi: "c1ccc(C(OCCN2CCN(Cc3nc4ccccc4[nH]3)CC2)c2ccccc2)cc1"
  category label: "False"
- smi: "c1ccc(C(OCCN2CCN(Cc3ccc4ncccc4c3)CC2)c2ccccc2)cc1"
  category label: "False"
- smi: "Fc1ccc(C(OCCN2CCN(Cc3ccc4ccccc4n3)CC2)c2ccc(F)cc2)cc1"
  category label: "False"
- smi: "Fc1ccc(C(OCCN2CCN(CCCc3cccnc3)CC2)c2ccc(F)cc2)cc1"
  category label: "True"

Task: I'd appreciate it if you could check whether Fc1ccc(C(OCCN2CCN(C/C=C/c3cccs3)CC2)c2ccc(F)cc2)cc1 has IC50 smaller than 30 nM.
Result: True

Task: I'd appreciate it if you could check whether Fc1ccc(C(OCCN2CCN(Cc3cc4ccccc4s3)CC2)c2ccc(F)cc2)cc1 has IC50 smaller than 30 nM.
Result: False

Task: Please determine if Fc1ccc(C(OCCN2CCN(Cc3cnc4ccccc4c3)CC2)c2ccc(F)cc2)cc1 is below 30 nM in terms of IC50.
Result: False

Task: Please check: IC50 for c1ccc(C(OCCN2CCN(Cc3ccc4ccccc4n3)CC2)c2ccccc2)cc1 , strictly under 30 nM or not?
Result: False

Task: # strict comparison: is reported IC50 < 30 nM? input = Fc1ccc(C(OCCN2CCN(C/C=C/c3ccco3)CC2)c2ccc(F)cc2)cc1
Result: True

---

Molecular target: Monoamine transporters; serotonin & dopamine (Rattus norvegicus) (UniProt P31652+P23977)
Sequence (P23977 whole entry, looked up): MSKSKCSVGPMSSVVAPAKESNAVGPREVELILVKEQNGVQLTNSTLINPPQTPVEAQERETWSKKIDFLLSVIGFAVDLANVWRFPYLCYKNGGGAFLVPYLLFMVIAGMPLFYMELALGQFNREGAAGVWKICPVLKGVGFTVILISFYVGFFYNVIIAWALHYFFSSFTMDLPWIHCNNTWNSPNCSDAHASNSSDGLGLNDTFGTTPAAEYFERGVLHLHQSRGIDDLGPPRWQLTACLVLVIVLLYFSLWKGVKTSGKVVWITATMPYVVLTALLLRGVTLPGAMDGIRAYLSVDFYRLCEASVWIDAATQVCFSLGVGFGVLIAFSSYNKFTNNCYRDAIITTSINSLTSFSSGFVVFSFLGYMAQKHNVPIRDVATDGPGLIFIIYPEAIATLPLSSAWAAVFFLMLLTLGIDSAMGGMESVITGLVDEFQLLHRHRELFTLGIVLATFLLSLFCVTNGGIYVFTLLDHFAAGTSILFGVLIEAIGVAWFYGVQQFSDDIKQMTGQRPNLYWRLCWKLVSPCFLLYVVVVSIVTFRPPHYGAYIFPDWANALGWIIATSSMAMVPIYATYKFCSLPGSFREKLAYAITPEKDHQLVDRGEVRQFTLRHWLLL
Sequence (P31652 whole entry, looked up): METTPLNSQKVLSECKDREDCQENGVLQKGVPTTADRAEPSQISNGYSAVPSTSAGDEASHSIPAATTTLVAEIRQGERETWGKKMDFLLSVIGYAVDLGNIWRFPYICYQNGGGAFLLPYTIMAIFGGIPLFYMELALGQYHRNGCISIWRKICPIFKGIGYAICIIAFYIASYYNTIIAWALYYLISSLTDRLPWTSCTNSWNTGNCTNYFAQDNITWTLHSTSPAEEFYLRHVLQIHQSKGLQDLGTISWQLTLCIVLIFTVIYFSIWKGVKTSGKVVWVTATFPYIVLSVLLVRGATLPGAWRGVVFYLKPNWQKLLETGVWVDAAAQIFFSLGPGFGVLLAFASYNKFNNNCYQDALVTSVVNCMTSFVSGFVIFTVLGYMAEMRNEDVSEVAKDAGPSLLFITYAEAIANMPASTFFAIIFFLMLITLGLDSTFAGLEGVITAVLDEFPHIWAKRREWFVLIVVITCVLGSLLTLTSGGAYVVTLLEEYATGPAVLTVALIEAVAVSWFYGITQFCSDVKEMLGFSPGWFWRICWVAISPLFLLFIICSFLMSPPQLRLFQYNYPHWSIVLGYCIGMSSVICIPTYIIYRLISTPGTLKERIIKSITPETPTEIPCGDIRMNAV
Test: Ratio of reuptake inhibition of 5-HT with respect to DA
Assay type: functional
Response field label takes yes when Ratio is strictly below 40 and no in all other cases.

- smi: "Fc1ccc(C(OCCN2CCN(Cc3ccc4ccccc4n3)CC2)c2ccc(F)cc2)cc1"
  category label: "yes"

Task: Hello, is Ratio of the following compound strictly smaller than 40? C(=C\c1cccs1)/CN1CCN(CCOC(c2ccccc2)c2ccccc2)CC1
Result: no

Task: Please check: Ratio for Fc1ccc(C(OCCN2CCN(Cc3cccc4ccccc34)CC2)c2ccc(F)cc2)cc1 , strictly under 40 or not?
Result: yes

Task: Is Ratio of Fc1ccc(C(OCCN2CCN(CCCc3nc4ccccc4[nH]3)CC2)c2ccc(F)cc2)cc1 strictly below 40?
Result: yes

Task: # TODO verify Ratio < 40 strictly for this compound: Fc1ccc(C(OCCN2CCN(CCCc3ccco3)CC2)c2ccc(F)cc2)cc1
Result: no

Task: API: query returns whether the compound falls strictly under 40 in Ratio. Query: Fc1ccc(C(OCCN2CCN(C/C=C/c3ccco3)CC2)c2ccc(F)cc2)cc1
Result: no

Task: Is Ratio strictly under 40 for the entry c1ccc(C(OCCN2CCN(CCCc3cccs3)CC2)c2ccccc2)cc1 ?
Result: no

Task: Determine if C(=C\c1ccco1)/CN1CCN(CCOC(c2ccccc2)c2ccccc2)CC1 shows Ratio strictly lower than 40.
Result: no

Task: Record C(=C\c1cccnc1)/CN1CCN(CCOC(c2ccccc2)c2ccccc2)CC1 : is its Ratio strictly below 40?
Result: no

Task: Is the reported Ratio for c1ccc(C(OCCN2CCN(Cc3cccc4ccccc34)CC2)c2ccccc2)cc1 strictly below 40?
Result: yes

Task: Determine if Fc1ccc(C(OCCN2CCN(C/C=C/c3cccs3)CC2)c2ccc(F)cc2)cc1 shows Ratio strictly lower than 40.
Result: yes

Task: Hello, is Ratio of the following compound strictly smaller than 40? c1ccc(C(OCCN2CCN(Cc3cc4ccccc4o3)CC2)c2ccccc2)cc1
Result: no

Task: Criterion: Ratio strictly below 40. Is it met by Fc1ccc(C(OCCN2CCN(Cc3cc4ccccc4s3)CC2)c2ccc(F)cc2)cc1 ?
Result: yes

Task: Consider the compound c1ccc(C(OCCN2CCN(Cc3cc4ccccc4s3)CC2)c2ccccc2)cc1 . Is its Ratio strictly less than 40?
Result: no

Task: Does this compound meet the criterion Ratio < 40? Fc1ccc(C(OCCN2CCN(Cc3cnc4ccccc4c3)CC2)c2ccc(F)cc2)cc1
Result: yes

Task: Does the reported Ratio of the following compound sit strictly below 40? c1ccc(C(OCCN2CCN(Cc3cnc4ccccc4c3)CC2)c2ccccc2)cc1
Result: yes

Task: Just wondering, is Ratio of c1ccc(C(OCCN2CCN(Cc3cc4ccccc4[nH]3)CC2)c2ccccc2)cc1 below 40?
Result: no

Task: Quick check: Ratio of c1ccc(C(OCCN2CCN(CCCc3cccnc3)CC2)c2ccccc2)cc1 under 40?
Result: no
